targetSystem: T1, monkey CD22 protein (ACROBiosystems, catalog number SI2-R52Ha) (monkey, UniProt F6W485 20-688)
T1 construct: commercial protein; also called monkey CD22-ECD; monkey CD22-ECD-His
T1 sequence: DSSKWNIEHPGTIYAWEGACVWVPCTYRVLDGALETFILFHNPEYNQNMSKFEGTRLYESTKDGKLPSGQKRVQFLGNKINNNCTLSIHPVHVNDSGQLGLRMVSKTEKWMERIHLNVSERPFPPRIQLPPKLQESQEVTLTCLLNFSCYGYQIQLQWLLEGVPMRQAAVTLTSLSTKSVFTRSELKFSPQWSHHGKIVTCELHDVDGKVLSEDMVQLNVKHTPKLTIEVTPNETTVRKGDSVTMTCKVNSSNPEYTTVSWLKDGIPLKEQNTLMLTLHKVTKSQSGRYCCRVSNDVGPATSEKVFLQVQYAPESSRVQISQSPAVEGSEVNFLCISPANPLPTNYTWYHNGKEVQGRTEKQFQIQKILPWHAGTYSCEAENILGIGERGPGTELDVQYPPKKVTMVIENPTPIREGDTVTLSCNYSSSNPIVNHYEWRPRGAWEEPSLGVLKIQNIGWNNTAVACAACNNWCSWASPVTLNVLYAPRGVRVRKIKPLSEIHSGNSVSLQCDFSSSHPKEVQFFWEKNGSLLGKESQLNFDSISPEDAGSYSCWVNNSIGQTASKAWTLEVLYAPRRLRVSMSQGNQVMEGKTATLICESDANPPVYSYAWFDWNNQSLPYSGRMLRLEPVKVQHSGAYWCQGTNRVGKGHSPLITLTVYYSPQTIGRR
experimentalDetails: ELISA, coated monkey CD22 protein, antibody 0.01 nM
Rule: OD450 of 0.2 OD450 or more gives t; anything lower gives f.

Check the entry F2.42.9 (antibody, human IgG1, lambda, V domains shown, human-murine chimeric IgG1 lambda; VL name legible) VH: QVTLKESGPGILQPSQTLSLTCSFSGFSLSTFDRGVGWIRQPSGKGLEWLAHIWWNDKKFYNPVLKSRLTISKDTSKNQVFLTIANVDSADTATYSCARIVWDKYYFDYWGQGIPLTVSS VL: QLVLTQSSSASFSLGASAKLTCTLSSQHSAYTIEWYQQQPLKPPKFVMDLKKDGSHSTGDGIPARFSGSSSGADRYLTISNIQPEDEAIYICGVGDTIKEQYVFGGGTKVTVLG : does OD450 equal or exceed 0.2 OD450? t

Thanks! And F1.192.1 (antibody, human IgG1, kappa, V domains shown, human-murine chimeric IgG1 kappa) VH: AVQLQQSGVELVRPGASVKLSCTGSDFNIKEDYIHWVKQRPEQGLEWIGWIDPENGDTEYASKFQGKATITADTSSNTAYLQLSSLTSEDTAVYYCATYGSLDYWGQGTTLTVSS VL: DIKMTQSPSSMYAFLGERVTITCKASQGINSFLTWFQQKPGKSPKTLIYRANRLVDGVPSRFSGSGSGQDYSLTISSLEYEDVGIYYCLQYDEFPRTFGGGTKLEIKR ? f

And F1.17.1 (antibody, human IgG1, kappa, V domains shown, human-murine chimeric IgG1 kappa) VH: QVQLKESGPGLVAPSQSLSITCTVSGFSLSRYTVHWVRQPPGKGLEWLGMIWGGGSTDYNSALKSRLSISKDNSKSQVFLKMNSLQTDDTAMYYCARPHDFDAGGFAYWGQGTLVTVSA VL: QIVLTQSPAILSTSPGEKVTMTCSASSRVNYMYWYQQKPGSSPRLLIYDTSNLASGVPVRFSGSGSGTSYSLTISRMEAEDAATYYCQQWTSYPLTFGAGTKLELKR ? t

# repeat for F1.231.15 (antibody, IgG1, V domains shown, human-murine chimeric IgG1 kappa) VH: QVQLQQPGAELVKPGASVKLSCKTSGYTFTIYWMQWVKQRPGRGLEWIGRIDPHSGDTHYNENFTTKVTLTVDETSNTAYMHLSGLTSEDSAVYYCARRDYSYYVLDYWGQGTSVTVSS VL: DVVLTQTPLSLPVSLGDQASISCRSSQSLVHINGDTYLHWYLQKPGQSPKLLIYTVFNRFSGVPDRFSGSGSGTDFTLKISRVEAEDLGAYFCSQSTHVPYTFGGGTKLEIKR f

Also, F2.205.9 (antibody, human IgG1, lambda, V domains shown, human-murine chimeric IgG1 lambda; VL name legible) VH: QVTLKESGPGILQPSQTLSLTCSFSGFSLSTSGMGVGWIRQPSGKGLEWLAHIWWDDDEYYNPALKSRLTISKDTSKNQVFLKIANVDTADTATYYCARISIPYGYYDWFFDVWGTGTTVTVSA VL: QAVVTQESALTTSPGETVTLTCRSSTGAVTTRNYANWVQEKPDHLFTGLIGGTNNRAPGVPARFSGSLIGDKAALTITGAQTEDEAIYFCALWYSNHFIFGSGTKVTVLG please. t

Provenance of the data: patent US20240084003A1
